In this section, each of the compounds is paired with its reported −E1/2.
MEASUREMENT_NOTES: Cyclic voltammetry, reduction of nitro group
Type: physicochemical
SETUP_CONDITIONS: half-wave potential of couple IIIc/IIIa, given with inverted sign; vs. Ag/AgCl electrode in DMSO
Numeric only. Scale: V

COMPOUND: Cn1c2ccc([N+](=O)[O-])cc2c(=O)n1Cc1ccccc1Cl
READOUT_NUMBER: 1.06
//
COMPOUND: Cn1c2ccc([N+](=O)[O-])cc2c(=O)n1Cc1cccc(Br)c1
READOUT_NUMBER: 1.06
//
COMPOUND: Cn1[nH]c2ccc([N+](=O)[O-])cc2c1=O
READOUT_NUMBER: 1.04
//
COMPOUND: O=[N+]([O-])c1ccc2c(c1)c(O)nn2CCCCCCCl
READOUT_NUMBER: 1.32
//
COMPOUND: Cn1c2ccc([N+](=O)[O-])cc2c(=O)n1Cc1cccc(F)c1
READOUT_NUMBER: 1.09
//
COMPOUND: CC1CS(=O)(=O)CCN1/N=C/c1ccc([N+](=O)[O-])o1 (stereo not drawn) [NFX, nifurtimox, reference compound]
READOUT_NUMBER: 0.88
//
COMPOUND: CC(c1ccccc1)n1c(=O)c2cc([N+](=O)[O-])ccc2n1C (stereo not drawn)
READOUT_NUMBER: 1.07
//
COMPOUND: O=C(Cn1ccnc1[N+](=O)[O-])NCc1ccccc1 [BNZ, benznidazole, reference compound]
READOUT_NUMBER: 1.00

In: Endpoint output: −E1/2 of Cn1c(=O)c2cc([N+](=O)[O-])ccc2n1C . Value?
Out: 1.08

* * *

MEASUREMENT_NOTES: Cyclic voltammetry, reduction of nitro group
Type: physicochemical
SETUP_CONDITIONS: half-wave potential of couple IIIc/IIIa, given with inverted sign; vs. Ag/AgCl electrode in DMSO
ENDPOINT: −E1/2 (V)
Numeric only. Scale: V

Consider the following illustrative entries.
MOLECULE: O=c1c2cc([N+](=O)[O-])ccc2[nH]n1Cc1ccccn1 [Compound 5a, 5-nitro-2-picolyl-indazolin-3-one]
VALUE_UNITS: V
−E1/2: 1.34
//
MOLECULE: O=c1c2cc([N+](=O)[O-])ccc2[nH]n1-c1ccccc1 [Compound 4]
VALUE_UNITS: V
−E1/2: 1.32

In: Endpoint output: −E1/2 of Cn1c2ccc([N+](=O)[O-])cc2c(=O)n1Cc1ccccc1C(F)(F)F [Compound 17] . Value?
Out: 1.10

In: Endpoint output: −E1/2 of Cn1c2ccc([N+](=O)[O-])cc2c(=O)n1Cc1ccccc1 [Compound 1] . Value?
Out: 1.07

In: Endpoint output: −E1/2 of COc1ccccc1Cn1c(=O)c2cc([N+](=O)[O-])ccc2n1C [Compound 15] . Value?
Out: 1.10

In: Endpoint output: −E1/2 of Cn1c2ccc([N+](=O)[O-])cc2c(=O)n1Cc1ccc(Br)cc1 [Compound 14] . Value?
Out: 1.10

In: Endpoint output: −E1/2 of COc1nn(C)c2ccc([N+](=O)[O-])cc12 [Compound 23] . Value?
Out: 1.31

* * *

MEASUREMENT_NOTES: Cyclic voltammetry, reduction of nitro group
Format: physicochemical
SETUP_CONDITIONS: current ratio RNO2/RNO2•−, couple IIIc/IIIa; DMSO
In this section, each of the compounds is paired with its reported Ipa/Ipc.
Hey, just send me the number, nothing else.

Consider the following illustrative entries.
COMPOUND: Cn1c2ccc([N+](=O)[O-])cc2c(=O)n1Cc1ccc(Cl)cc1
Ipa/Ipc: 0.89

COMPOUND: CC(c1ccccc1)n1c(=O)c2cc([N+](=O)[O-])ccc2n1C (stereo not drawn)
Ipa/Ipc: 0.91

Turning now to a further record.
In: Endpoint output: Ipa/Ipc of COc1ccc(Cn2c(=O)c3cc([N+](=O)[O-])ccc3n2C)cc1 . Value?
Out: 0.91
